target under test: recombinant Heliothis virescens PMCA
method description: PMCA activity assay, luciferase-luciferin luminescence measurement of remaining ATP
experimental setup: membrane vesicles from Sf9 cells; room temperature (22-24° C.), 60 minutes; FIG. 5; read-out: IC50 of inhibition of PMCA activity (rates of ATP consumption)
measurement name: pIC50
Formally, pIC50 is defined as -log10 of the concentration c, with c in mol/L.

**Query** Indicate its recorded pIC50; the compound in question is O=C1OC2(c3ccccc31)c1cc(Br)c(O)c(Br)c1Oc1c2cc(Br)c(O)c1Br [eosin, reference compound]
**Result** 7.92

Values were extracted from patent US20060269938A1.
